# ASSAY_TARGET: Isocitrate dehydrogenase [NADP] cytoplasmic (Homo sapiens, UniProt O75874, R132H)
# Sequence (O75874 2-414 R132H limits assumed): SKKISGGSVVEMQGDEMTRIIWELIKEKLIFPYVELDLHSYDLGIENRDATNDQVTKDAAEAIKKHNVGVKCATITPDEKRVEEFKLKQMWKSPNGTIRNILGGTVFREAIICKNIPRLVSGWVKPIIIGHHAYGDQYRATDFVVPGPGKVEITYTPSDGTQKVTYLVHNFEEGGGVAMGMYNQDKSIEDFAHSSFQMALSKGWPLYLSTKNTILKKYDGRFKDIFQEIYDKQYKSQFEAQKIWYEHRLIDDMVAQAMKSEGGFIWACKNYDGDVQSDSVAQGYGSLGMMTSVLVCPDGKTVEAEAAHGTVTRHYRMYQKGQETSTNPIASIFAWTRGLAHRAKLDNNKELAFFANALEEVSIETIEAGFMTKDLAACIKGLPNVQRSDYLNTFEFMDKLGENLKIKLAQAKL
# ASSAY_OVERVIEW: Binding affinity to C-terminal His6-tagged IDH1 R132H mutant (unknown origin) expressed in Escherichia coli BL21 (DE) measured after 20 mins by Red-NHS fluorescence dye-based microscale thermophoresis analysis
REPORTED_METRIC: Kd
Answer with the number, then the unit.

{"STRUCTURE_SMILES_STRING": "C[C@]12C(=O)C=CCC1=CC[C@@H]1[C@@H]2CC[C@]2(O)C(=O)O[C@@]3(C)[C@H]4C[C@]5(C)[C@@H](CO[C@@]16O[C@@]32[C@H]5C6=O)C(=O)O4", "Kd": "45.3 µM"}

Can you share its Kd? I mean this compound: `C[C@@]12C[C@H]3OC(=O)[C@@H]1CO[C@]14O[C@@]5([C@H]2C1=O)[C@@]3(C)OC(=O)[C@@]5(O)CC[C@H]1[C@H]4C[C@H]2O[C@]23CC=CC(=O)[C@]13C` 15.3 µM
